// data source = ChEMBL document CHEMBL5728197

measurement.target: Lysine-specific histone demethylase 1A (Homo sapiens, UniProt O60341)
experiment.summary: Biological Activity Assay: Assaying the inhibition of KDM1A can be determined in vitro, in cultured cells, and in animals. There are a variety of spectrophotometric methods to detect the results of demethylation of methylated lysines, viz., detecting the products of KDM1A demethylase oxidative activity on a peptide fragment of at least 18 amino acid representing the N-terminus of the histone H3 substrate that contains a monomethyl at the fourth lysine residue. Hydrogen peroxide, one product of the KDM1A demethylase reaction, reacts with horseradish peroxidase and dihydroxyphenoxazine (ADHP) to produce the fluorescent compound resorufin (excitation=530-560 nm:emission=590 nm). The KDM1A demethylase enzyme activity can obtained from mammalian cells or tissues expressing KDM1A from an endogenous or recombinant gene and purified or assayed from a whole cell extract. These methods can be used to determine the concentration of the disclosed compounds can inhibit fifty percent of the enzyme activity (IC50).
pIC50: −log10 of the molar value.
test.readout: pIC50

GET /values?readout=pIC50&system=Lysine-specific histone demethylase 1A (Homo sapiens, UniProt O60341)&item= COc1ccc([C@@H]2C[C@H]2NC(=O)COC[C@H](NC(=O)c2ccc(F)cc2)C(=O)N2CCOCC2)cc1
< 6.00

GET /values?readout=pIC50&system=Lysine-specific histone demethylase 1A (Homo sapiens, UniProt O60341)&item= O=C(N[C@@H](COCCN[C@@H]1C[C@H]1c1ccc(F)cc1)C(=O)N1CCOCC1)c1ccc(F)cc1
> 6.00
